I'd appreciate it if you could supply log10(TGI) values for the items below.
Test system: UACC-257 melanoma
Test: NCI tumour cell line growth inhibition, 48 h
Would you kindly interpret these values as log10 of TGI expressed in µM?

> print(dat)
                                   molecule  measured.number
1                 Cc1ccc(OCCCCCCNCCO)c(C)c1             1.47
2  CCNC(=O)Oc1ccc(/C(=C(\C)c2ccc(Cl)cc2)c2ccc(OCCN3CCCCC3)cc2)cc1             0.71
3  O=C(CCN1CCCCC1CO)Nc1ccc2c(c1)C(=O)c1ccc(NC(=O)CCN3CCCCC3CO)cc1C2=O (configuration not stated)             1.96
4  O=C(O)c1ccc(Nc2cnc3ccc(C(F)(F)F)cc3n2)cc1             1.97
5               OCCCCC#Cc1ccccc1C#Cc1cnccn1             1.79
6      BrCC[P+](c1ccccc1)(c1ccccc1)c1ccccc1             1.22
7     O=C(CN=Cc1cccs1)CSC(c1ccccc1)c1ccccc1             1.68

Now for another entry.
INPUT: Under UACC-257 melanoma: log10(TGI) value of `CC(C)(C)c1ccc(S(=O)(=O)N[C@H]2CC[C@H]3[C@@H]4CCc5cc(O)ccc5[C@H]4CC[C@]23C)cc1` ?
OUTPUT: 0.83
